B1: TMEM192 (parent)
chain: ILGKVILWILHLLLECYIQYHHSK

Variants of: B1
Assay: protein stability index of a GFP-peptide fusion (GPS, HEK-293T) (PSI 1-6); higher = more stable;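 also: lentivirally expressed fusions sorted by FACS into six bins by GFP to DsRed ratio, PSI derived from sequencing read proportions per bin multiplied by bin number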
Details: c terminus: a fixed tail appended
So basically: protein stability index at 3 or higher? That is true. Lower than 3? That is false.

Hello, I need to know if `I9P` has measured protein stability index not below 3. Thanks! true

Hello, I need to know if `W8S` has measured protein stability index not below 3. Thanks! true

Hello, I need to know if `L14R` has measured protein stability index not below 3. Thanks! false

Hello, I need to know if `W8I` has measured protein stability index not below 3. Thanks! false

Hello, I need to know if `L14S` has measured protein stability index not below 3. Thanks! false

Hello, I need to know if `I1N` has measured protein stability index not below 3. Thanks! true

Hello, I need to know if `I9C` has measured protein stability index not below 3. Thanks! false

Hello, I need to know if `H21V` has measured protein stability index not below 3. Thanks! true

Hello, I need to know if `K24E` has measured protein stability index not below 3. Thanks! true

Hello, I need to know if `I18H` has measured protein stability index not below 3. Thanks! false

Hello, I need to know if `Q19G` has measured protein stability index not below 3. Thanks! true

Hello, I need to know if `L14W` has measured protein stability index not below 3. Thanks! false

Hello, I need to know if `I1E` has measured protein stability index not below 3. Thanks! true

Hello, I need to know if `C16W` has measured protein stability index not below 3. Thanks! false

Hello, I need to know if `Y20D` has measured protein stability index not below 3. Thanks! false

Hello, I need to know if `L2Y` has measured protein stability index not below 3. Thanks! false

Hello, I need to know if `C16S` has measured protein stability index not below 3. Thanks! true

Hello, I need to know if `I9L` has measured protein stability index not below 3. Thanks! false
